Molecular target: T1, Human BCMA (human, UniProt Q02223 1-54, limits assumed)
T1 construct: Soluble analyte in SPR; construct not described; also called huBCMA; B-cell maturation antigen
T1 sequence (looked up): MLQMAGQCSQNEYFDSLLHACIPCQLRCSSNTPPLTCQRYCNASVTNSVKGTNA
Assay: SPR, IgG immobilised, 25 C
QUANTITY MEASURED: pKd
Recall that pKd is obtained by taking minus log10 of the concentration measured in molar.

Query: Give the measured pKd of L1.GDF/L3.NY/P6E01 (antibody, V domains shown, IgG) VH: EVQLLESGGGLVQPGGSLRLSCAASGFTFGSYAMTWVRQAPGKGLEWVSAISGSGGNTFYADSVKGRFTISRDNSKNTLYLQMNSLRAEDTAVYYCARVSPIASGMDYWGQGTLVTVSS VL: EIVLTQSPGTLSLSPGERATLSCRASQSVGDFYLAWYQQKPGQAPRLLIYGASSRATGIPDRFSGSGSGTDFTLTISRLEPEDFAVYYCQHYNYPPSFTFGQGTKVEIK .
Reply: 8.43

Query: Then what about the binder L3.PY/P6E01 (antibody, V domains shown, IgG) VH: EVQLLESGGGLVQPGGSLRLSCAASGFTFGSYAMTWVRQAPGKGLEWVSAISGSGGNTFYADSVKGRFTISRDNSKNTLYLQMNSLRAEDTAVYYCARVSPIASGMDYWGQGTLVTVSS VL: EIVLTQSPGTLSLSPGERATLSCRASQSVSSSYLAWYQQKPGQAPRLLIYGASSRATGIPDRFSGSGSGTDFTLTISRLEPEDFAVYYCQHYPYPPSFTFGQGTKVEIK ?
Reply: 9.49

Query: Then what about the binder L1.LGF/L3.NY/H3.AQ (antibody, V domains shown, IgG) VH: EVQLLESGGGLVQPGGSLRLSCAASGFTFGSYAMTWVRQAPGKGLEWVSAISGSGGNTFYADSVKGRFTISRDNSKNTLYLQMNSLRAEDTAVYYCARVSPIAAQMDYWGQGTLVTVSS VL: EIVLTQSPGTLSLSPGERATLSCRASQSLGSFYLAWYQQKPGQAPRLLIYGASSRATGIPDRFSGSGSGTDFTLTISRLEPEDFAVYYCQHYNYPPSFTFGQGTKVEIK ?
Reply: 9.35
